Every entry's value here was drawn from patent US20230115176A1.

biological target: human C5 complement protein (Homo sapiens); experiment: Surface plasmon resonance (SPR), immobilized human C5, 37° C. (Example 12, Table 21); type: binding; conditions: where a range of compound concentrations were analyzed, the lowest value obtained
Readings of log10(Kd) for the listed molecules
Hello, just confirming the data are log10 of Kd with units of nM.

molecule | val
CCCCCOc1cc(N2CCCN(Cc3ccc(CC(=O)NC4CCN(C(C)C)CC4)cc3OC)C2=O)ccc1OC [CU0109] | 0.04

Recall and state the measured log10(Kd) for CCCCCOc1cc(N2CCCN(Cc3ccnc4c3ccn4CC(=O)N3CCOC(CN4CCCC4)C3)C2=O)ccc1OC (centres unmarked) [CU0051] . 0.90

Recall and state the measured log10(Kd) for CCCCCOc1cc(N2CCCN(Cc3ccc(CC(=O)N4CCCN(C)CC4)cc3OC)C2=O)ccc1OC [CU0104] . -0.22

Recall and state the measured log10(Kd) for CCCCCOc1cc(N2CCCN(Cc3ccnc4c3ccn4CC(=O)N(C)C)C2=O)ccc1OC [CU0035] . 1.53

====

Readings of Kd for the listed compounds
target: Human C5 (Homo sapiens); construct: purchased Complement Technology; assay: Surface plasmon resonance (SPR), compounds on immobilized human C5 (Example 2, Table 5); assay type: binding; conditions: lowest value where a range of compound concentrations were analyzed
Give a bare numeral; the unit nM is implied.

Examples with their reported Kd follow.
compound | val
COc1ccc(NC(=O)N[C@@H](C)c2ccc(Br)cc2)cc1OCCCC(C)C [SM0108] | 3200
CC(C)CCCOc1cc(NC(=O)N[C@@H](CO)c2ccccc2)ccc1F [SM0075] | 1300
COc1ccc(NC(=O)N[C@@H]2c3ccccc3C[C@@H]2O)cc1OCCCC(C)C [SM0066] | 290
COc1ccc(NC(=O)Nc2ccccc2O)cc1OCCCC(C)C [SM0069] | 140

Report Kd on Human C5 (Homo sapiens) for this entry: C=CCCOc1cc(NC(=O)N[C@@H](CO)c2ccccc2)ccc1OC [SM0034] 1400

====

target: purified human C5 (Homo sapiens, UniProt P01031); assay: Red blood cell (RBC) hemolysis assay, optical, absorbance 412 nm (Example 10, Table 19); format: cell-based; settings: antibody-sensitized sheep erythrocytes, […] human C5 depleted sera, 0.5 nM purified human C5, absorbance 412 nm; read-out: RBC Hemolysis IC50
Readings of log10 of IC50 for the listed molecules
Hello, just confirming the data are log10 of IC50 with units of nM.

Examples with their reported log10 of IC50 follow.
molecule | log10 of IC50
COc1ccc(NC(=O)NCc2ccnc(N)c2)cc1OCCCC(C)C | 2.65
COc1ccc(NC(=O)NCc2ccc3c(ccn3CC(=O)N(C)C)c2)cc1OCCCC(C)C | 2.73
COc1ccc(NC(=O)NCc2cccc(CN3CCCC3=O)c2)cc1OCCCC(C)C | 3.28
COc1ccc(NC(=O)NCc2cccc(CO)c2)cc1OCCCC(C)C | 3.19
COc1ccc(NC(=O)NCc2ccnc3c2ccn3CC2CCCN2C)cc1OCCCC(C)C (centres unmarked) | 1.95

Recall and state the measured log10 of IC50 for COc1ccc(NC(=O)NCc2cncs2)cc1OCCCC(C)C . 3.60

Recall and state the measured log10 of IC50 for COc1ccc(NCCCN(C)C)cc1CNC(=O)Nc1ccc(OC)c(OCCCC(C)C)c1 . 3.02

Recall and state the measured log10 of IC50 for COc1ccc(NC(=O)NCc2cccc3cccnc23)cc1OCCCC(C)C . 2.47

====

Readings of Papp A→B at 3 μM for the listed molecules
test: Permeability assay, unidirectional transport, Papp (Example 30, Table 34); assay type: in vitro ADME, canine; conditions: dog, pH 7.4; MDCK-WT cell monolayers, A-to-B, 3 μM test compound, 37° C., duplicate determinations
Give a bare numeral; the unit ×10⁻⁶ cm/s is implied.

Examples with their reported Papp A→B at 3 μM follow.
lineNotation | Papp A→B at 3 μM / ×10⁻⁶ cm/s
COc1ccc(N2CCCN(Cc3ccnc4c3c(Cl)cn4CC(=O)N(C)C)C2=O)cc1Br | 23.8
CCCCCOc1cc(N2CCCN(Cc3ccnc4c3c(Cl)cn4CC(=O)N(C)CC#N)C2=O)ccc1OC | 17.1
CCN1CC[C@H](N(C)C(=O)Cc2ccc(CN3C(=O)N(c4ccc(OC)c(OCCCC5CC5)c4)CC[C@@H]3C)c(OC)c2)C1 | 3.5

Recall and state the measured Papp A→B at 3 μM for CCCCCOc1cc(N2CCCN(Cc3ccnc4c3c(Cl)cn4C3CCOCC3)C2=O)ccc1OC . 9.6

====

target: human C5 complement protein (Homo sapiens, UniProt P01031); assay: Surface plasmon resonance (SPR), immobilized human C5, 37° C. (Example 18, Table 24); format: binding; settings: lowest value obtained where a range of concentrations was analyzed
Sequence (P01031 19-1676): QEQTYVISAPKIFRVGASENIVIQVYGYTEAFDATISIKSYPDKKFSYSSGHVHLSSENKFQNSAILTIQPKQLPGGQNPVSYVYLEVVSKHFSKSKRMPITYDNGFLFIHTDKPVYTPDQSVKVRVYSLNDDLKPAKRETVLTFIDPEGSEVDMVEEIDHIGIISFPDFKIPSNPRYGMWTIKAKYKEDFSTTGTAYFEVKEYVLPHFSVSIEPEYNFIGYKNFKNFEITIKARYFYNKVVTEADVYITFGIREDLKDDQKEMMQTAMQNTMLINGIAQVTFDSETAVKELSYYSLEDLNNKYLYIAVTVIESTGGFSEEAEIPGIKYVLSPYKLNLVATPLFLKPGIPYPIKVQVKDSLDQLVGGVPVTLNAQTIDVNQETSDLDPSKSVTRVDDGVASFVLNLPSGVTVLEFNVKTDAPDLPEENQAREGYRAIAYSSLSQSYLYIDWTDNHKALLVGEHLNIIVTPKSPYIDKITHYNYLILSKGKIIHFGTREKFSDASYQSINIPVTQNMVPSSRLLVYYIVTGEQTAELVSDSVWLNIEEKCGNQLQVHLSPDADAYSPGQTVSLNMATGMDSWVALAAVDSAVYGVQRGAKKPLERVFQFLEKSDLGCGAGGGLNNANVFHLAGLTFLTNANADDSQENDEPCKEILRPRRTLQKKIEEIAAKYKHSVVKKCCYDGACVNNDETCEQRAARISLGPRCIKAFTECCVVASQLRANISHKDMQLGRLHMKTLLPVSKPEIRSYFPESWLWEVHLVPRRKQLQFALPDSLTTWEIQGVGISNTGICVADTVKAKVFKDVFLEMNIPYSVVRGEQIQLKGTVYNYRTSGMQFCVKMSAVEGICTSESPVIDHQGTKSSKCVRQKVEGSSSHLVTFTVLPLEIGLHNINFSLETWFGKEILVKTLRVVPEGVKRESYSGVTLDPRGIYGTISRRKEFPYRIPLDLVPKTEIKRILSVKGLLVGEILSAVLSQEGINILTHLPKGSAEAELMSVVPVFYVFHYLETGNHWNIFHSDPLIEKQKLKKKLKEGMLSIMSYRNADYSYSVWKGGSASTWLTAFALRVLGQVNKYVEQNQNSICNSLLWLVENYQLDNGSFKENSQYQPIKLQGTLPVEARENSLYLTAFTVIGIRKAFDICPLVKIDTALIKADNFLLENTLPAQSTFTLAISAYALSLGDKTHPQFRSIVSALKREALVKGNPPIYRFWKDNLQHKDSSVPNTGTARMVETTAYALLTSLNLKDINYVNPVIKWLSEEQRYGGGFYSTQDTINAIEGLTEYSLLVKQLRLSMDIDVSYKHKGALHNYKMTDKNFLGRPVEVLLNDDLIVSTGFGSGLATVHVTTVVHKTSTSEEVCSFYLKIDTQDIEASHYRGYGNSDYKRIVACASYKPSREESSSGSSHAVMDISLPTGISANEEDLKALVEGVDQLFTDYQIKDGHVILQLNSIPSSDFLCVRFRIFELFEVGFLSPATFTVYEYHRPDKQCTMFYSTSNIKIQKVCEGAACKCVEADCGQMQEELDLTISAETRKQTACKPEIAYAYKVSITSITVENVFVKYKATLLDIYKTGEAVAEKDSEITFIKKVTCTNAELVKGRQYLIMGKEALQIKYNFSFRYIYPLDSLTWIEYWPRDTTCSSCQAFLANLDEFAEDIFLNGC
experimentalReadout: Kd

molecule | testedTarget | Kd
COc1ccc(N2CCCN(Cc3ccnc4c3c(Cl)cn4CC(=O)N(C)C)C2=O)cc1OCCCC(F)(F)C(F)(F)F [CU0502] | human C5 complement protein (Homo sapiens, UniProt P01031) | 0.32 nM
COc1ccc(N2CCCN(Cc3cccc4c3c(Cl)cn4CC(=O)N(C)C)C2=O)cc1OCCC[C@H]1C[C@@H]1C (racemic) [CU0524] | human C5 complement protein (Homo sapiens, UniProt P01031) | 0.038 nM
COc1cc(CCN2CCCC2)ccc1CN1CCCN(c2ccc(OC)c(OCCCC3CCC3)c2)C1=O [CU0699] | human C5 complement protein (Homo sapiens, UniProt P01031) | 0.078 nM

Pending molecule:
Report Kd on human C5 complement protein (Homo sapiens, UniProt P01031) for this entry: COc1ccc(N2CCCN(Cc3ccnc4c3c(Cl)cn4CC(=O)N(C)C)C2=O)cc1OCCC[C@H]1C[C@@H]1C [CU0610] 0.207 nM

====

target: Human C5 (Homo sapiens, UniProt P01031); construct: purchased Complement Technology; experiment: Red blood cell (RBC) hemolysis assay, luminescent (Example 28, Table 32); assay type: cell-based; details: sheep EA cells, 1.5% C5-depleted human serum, 0.5 nM human C5, 1 hour at 37° C., luminescence (Table 32)
experimentalReadout: pIC50
pIC50 (log units): -log10 of the concentration in mol/L.

compound | pIC50
COc1cc(CC(=O)N(C)[C@H]2CCNC2)ccc1CN1C(=O)N(c2ccc(OC)c(OCCCC3CC3)c2)CC[C@@H]1C [SC0161] | 8.55

Report pIC50 on Human C5 (Homo sapiens, UniProt P01031) for this entry: CCCCCOc1cc(N2C[C@H](C)CN(Cc3ccc(CC(=O)N4CCCC4)cc3OC)C2=O)ccc1OC [SC0207] 7.93

Report pIC50 on Human C5 (Homo sapiens, UniProt P01031) for this entry: COc1cc(CC(=O)N[C@H]2CCNC2)ccc1CN1C(=O)N(c2ccc(OC)c(OCCCC3CC3)c2)CC[C@@H]1C [SC0114] 8.89

Report pIC50 on Human C5 (Homo sapiens, UniProt P01031) for this entry: CCCCCOc1cc(N2CC(C)CN(Cc3ccc(CNC(C)=O)cc3OC)C2=O)ccc1OC (centres unmarked) [SC0198] 8.01

Report pIC50 on Human C5 (Homo sapiens, UniProt P01031) for this entry: CCCCCOc1cc(N2C[C@@H](CO)CN(Cc3ccc(CC(=O)N(C)C)cc3OC)C2=O)ccc1OC [SC0206] 7.93

Report pIC50 on Human C5 (Homo sapiens, UniProt P01031) for this entry: COc1cc(CCN2CC3(COC3)C2)ccc1CN1C(=O)N(c2ccc(OC)c(OCCCC3CC3)c2)CC[C@@H]1C [SC0196] 8.07

Report pIC50 on Human C5 (Homo sapiens, UniProt P01031) for this entry: COc1cc(CC(=O)N(C)C)ccc1CN1CC(C)CN(c2ccc(OC)c(OCCCC3CC3)c2)C1=O (centres unmarked) [SC0194] 8.07

====

experiment: Kinetic solubility in PBS pH 7.4, HPLC-UV (Example 21, Table 27); type: physicochemical; conditions: phosphate buffered saline, aqueous buffer, kinetic from dmso stock, 0.5 M PBS, shaken minimum 24 h at approximately 25° C., HPLC-UV 270 nm
Label scheme for solubility kinetic: lower than 400 µM is Not fulfilled, 400 µM and above is Fulfilled.

Example results:
molecule | answerLabel
CCCCCOc1cc(N2CCCN(Cc3ccc(CC(=O)N4CCN=C(N(C)C)C4)cc3OC)C2=O)ccc1OC | Not fulfilled
CCCCCOc1cc(N2CC[C@H](C)N(Cc3cccc4c3c(C)cn4CC(=O)N(C)C)C2=O)ccc1OC | Not fulfilled
COc1cc(CC(=O)NC2CCN(C(C)C)CC2)ccc1CN1CCCN(c2ccc(OC)c(OCCCC(C)(F)F)c2)C1=O | Not fulfilled
COc1cc(CC(=O)N2CCO[C@@H](CN(C)C)C2)ccc1CN1C(=O)N(c2ccc(OC)c(OCCCC3CC3)c2)CC[C@@H]1C | Fulfilled
C=C1CN(Cc2cc(F)ccc2OC)C(=O)N(c2ccc(OC)c(OCCCCC)c2)C1 | Not fulfilled

Item COc1cc(CC(=O)N(C)C)ccc1CN1CCCN(c2ccc(OC)c(OCCCCC(C)(C)C)c2)C1=O with solubility kinetic of 400 µM or above? Not fulfilled

Item CCCCCOc1cc(N2CCCN(Cc3ccnc4c3c(Cl)cn4CC(=O)N3CC[C@@H](OC)C3)C2=O)ccc1OC with solubility kinetic of 400 µM or above? Not fulfilled

Item CCCCCOc1cc(N2CCCN(Cc3ccc(CNC(C)=O)cc3OC)C2=O)ccc1OC with solubility kinetic of 400 µM or above? Fulfilled

Item CCCCCOc1cc(N2CCCN(Cc3cncc4c3c(Cl)cn4CC(=O)N(C)C)C2=O)ccc1OC with solubility kinetic of 400 µM or above? Not fulfilled

Item CCCCCOc1cc(N2CC[C@H](C)N(Cc3ccnc4c3c(Cl)cn4CC(=O)N3CC(O)C3)C2=O)ccc1OC with solubility kinetic of 400 µM or above? Not fulfilled

Item COc1ccc(N2CC[C@H](C)N(Cc3cccc4c3ccn4CC(=O)N3CCOCC3)C2=O)cc1OCCCC1CC1 with solubility kinetic of 400 µM or above? Fulfilled
